Test system: muscarinic antagonist sites
Experiment: Binding to muscarinic antagonist sites using [^3 H]quinuclidinyl benzylate (RQNB)
Conditions: [^3 H]quinuclidinyl benzylate radioligand
satisfied if RQNB % Inhibition @ 1 μM is below 7%. not satisfied if not; exact matches included in not satisfied.

Here are 3 compounds together with their reported answers.
API: query returns whether the compound falls strictly under 7% in RQNB % Inhibition @ 1 μM. Query: CCCN1CCC=C(C2=NOC(c3ccccc3)C2)C1 (stereo not drawn) [Example 1] not satisfied

API: query returns whether the compound falls strictly under 7% in RQNB % Inhibition @ 1 μM. Query: CCCN1CCC=C(c2cc(-c3ccccc3)on2)C1 [Example 4B] satisfied

API: query returns whether the compound falls strictly under 7% in RQNB % Inhibition @ 1 μM. Query: CCCN1CCC=C(c2cc(-c3ccc(C)cc3)on2)C1 [Example 5B] satisfied

More entries:
API: query returns whether the compound falls strictly under 7% in RQNB % Inhibition @ 1 μM. Query: CCCN1CCC=C(c2cc(-c3ccc(OC)cc3)on2)C1 [Example 14B] not satisfied

API: query returns whether the compound falls strictly under 7% in RQNB % Inhibition @ 1 μM. Query: CCCN1CCC=C(c2cc(-c3ccccc3)no2)C1 [Example 4A] not satisfied

API: query returns whether the compound falls strictly under 7% in RQNB % Inhibition @ 1 μM. Query: CCCN1CCC=C(C2=NOC(c3ccc(Cl)cc3)C2)C1 (stereo not drawn) [Example 3] not satisfied

API: query returns whether the compound falls strictly under 7% in RQNB % Inhibition @ 1 μM. Query: CCCN1CCC=C(c2cc(-c3ccc(OC)cc3)no2)C1 [Example 14A] not satisfied

API: query returns whether the compound falls strictly under 7% in RQNB % Inhibition @ 1 μM. Query: CCCN1CCC=C(c2cc(-c3ccccc3OC)no2)C1 [Example 9A] not satisfied

Reference source: patent US5330994A
